# assay_procedure: Spectroscopic properties of the BDM library (absorbance and emission maxima)
# Assay type: physicochemical
List of λmax (ABS) values.
State the answer as a number, implicitly in nm.

Observe how each entry below is paired with its result.
| smiles_representation | readout_units | observed |
| --- | --- | --- |
| COc1cc(Cl)cc(/C=C/C2=[N+]3C(=C(CCN)c4cccn4[B-]3(F)F)C(C)=C2)c1O | nm | 562 |
| CC1=CC(/C=C/c2ccc3c(c2)OCO3)=[N+]2C1=C(CCN)c1cccn1[B-]2(F)F | nm | 564 |
| COc1ccc(F)cc1/C=C/C1=[N+]2C(=C(CCN)c3cccn3[B-]2(F)F)C(C)=C1 | nm | 559 |

Here is another compound to look at.
QUERY: Which measured λmax (ABS) value corresponds to CC1=CC(/C=C/c2cccc(I)c2)=[N+]2C1=C(CCN)c1cccn1[B-]2(F)F ?
RESULT: 555

* * *

# assay_procedure: Spectroscopic properties of the BDM library (absorbance and emission maxima)
# Format: physicochemical
assay_readout: λmax (EM)
In your response, put the unit directly after the numeric value.

Observe how each entry below is paired with its result.
| smiles_representation | λmax (EM) |
| --- | --- |
| CC1=CC(/C=C/c2ccccc2I)=[N+]2C1=C(CCN)c1cccn1[B-]2(F)F | 565 nm |
| CC1=CC(/C=C/c2ccc(Oc3ccc(Cl)cc3)cc2)=[N+]2C1=C(CCN)c1cccn1[B-]2(F)F | 574 nm |
| COc1cc(Br)cc(/C=C/C2=[N+]3C(=C(CCN)c4cccn4[B-]3(F)F)C(C)=C2)c1OC | 567 nm |

Here is another compound to look at.
QUERY: Which measured λmax (EM) value corresponds to CC1=CC(/C=C/c2ccc(C)s2)=[N+]2C1=C(CCN)c1cccn1[B-]2(F)F ?
RESULT: 594 nm

* * *

# assay_procedure: Quantum yield measurements
# Assay type: physicochemical
# experimental_context: referred to Rhodamine B in EtOH, excitation 510 nm, emission integrated 540-800 nm
assay_readout: φ (quantum yield)
The answer should be written as a number, with no unit following it.

| smiles_representation | φ (quantum yield) |
| --- | --- |
| CC1=CC(/C=C/c2ccc3c(c2)OCO3)=[N+]2C1=C(CCN)c1cccn1[B-]2(F)F | 0.55 |
| CC1=CC(/C=C/c2ccc(-c3cccc(Cl)c3)o2)=[N+]2C1=C(CCN)c1cccn1[B-]2(F)F | 0.03 |
| COc1ccc(/C=C/C2=[N+]3C(=C(CCN)c4cccn4[B-]3(F)F)C(C)=C2)c(OC)c1C | 0.57 |
| COc1cc(OC)c(/C=C/C2=[N+]3C(=C(CCN)c4cccn4[B-]3(F)F)C(C)=C2)cc1Br | 0.54 |
| CC1=CC(/C=C/c2ccc(N(C)CCO)cc2)=[N+]2C1=C(CCN)c1cccn1[B-]2(F)F | 0.02 |

QUERY: Which measured φ (quantum yield) value corresponds to COc1cccc(/C=C/C2=[N+]3C(=C(CCN)c4cccn4[B-]3(F)F)C(C)=C2)c1O ?
RESULT: 0.04

QUERY: Same question, CC1=CC(/C=C/c2ccc(OC(F)F)cc2)=[N+]2C1=C(CCN)c1cccn1[B-]2(F)F this time
RESULT: 0.71

QUERY: Same question, COc1ccc(Oc2cccc(/C=C/c3cc(C)c4n3[B-](F)(F)[N+]3=CC=CC3=C4CCN)c2)cc1 this time
RESULT: 0.25

QUERY: Same question, CC1=CC(/C=C/c2cccc(O)c2Cl)=[N+]2C1=C(CCN)c1cccn1[B-]2(F)F this time
RESULT: 0.15

QUERY: Same question, CC1=CC(/C=C/c2ccc(-c3cncnc3)cc2)=[N+]2C1=C(CCN)c1cccn1[B-]2(F)F this time
RESULT: 0.18

QUERY: Same question, Cc1cc(/C=C/c2ccc(OCc3ccccc3)c(OCc3ccccc3)c2)n2c1C(CCN)=C1C=CC=[N+]1[B-]2(F)F this time
RESULT: 0.42

QUERY: Same question, COc1c(Br)cc(Br)cc1/C=C/C1=[N+]2C(=C(CCN)c3cccn3[B-]2(F)F)C(C)=C1 this time
RESULT: 0.32
